# assayed target: Nuclear receptor subfamily 0 group B member 1 (Homo sapiens)
# experimental details: DAX1 (NR0B1) inhibitors, primary screen, cell-based, HEK293, Gal4-DAX1, luciferase luminescence (AID 504766);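 note: 0% = DAX1-transfected cells with DMSO and 100% = empty-vector control cells with DMSO; inhibition shows as a rise in luminescence from relieved DAX1 repression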
# run parameters: HEK293 Gal4-DAX1 luciferase reporter, at 6.75 µM
The campaign covered roughly 340,000 compounds. About 3,400 (1%) were called active.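 Rule for the calls: active = inhibition above the mean over all tested compounds plus 3 SD (cut at about 4.2% in these data); inactive = the rest.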 The entries come from a sample that favours actives as a whole.
Classes used: True for active, False for inactive

CN(C)/C=C(/C(=O)c1ccc(Cl)c(Cl)c1)c1nnnn1-c1ccccc1 : True
Cc1cccc(Oc2c([N+](=O)[O-])c(=O)n(C)c3ccccc23)c1 : True
O=C(NC1CCCC1)c1cc(-c2ccccc2)on1 : True
Cc1cc2[nH]ncc2cc1NC(=S)NC(=O)c1ccccc1 : True
O=C(NC1CCCCC1)c1cc(C2CC2)on1 : False
CC(=O)c1ccc(S(=O)(=O)NCc2nnnn2-c2ccccc2)cc1 : False
O=C(NCCCn1ccnc1)c1ccccc1F : False
CCCCN1C(=O)C(CC(=O)NC(c2ccccc2)c2ccccc2)CC(C(=O)N2CCOCC2)=C1C (stereo unspecified) : False
CCn1nnnc1SCC(=O)c1ccc(C)cc1C : False
Cc1cc(C)cc(C(=O)NC(=S)Nc2ccc3[nH]c(=O)[nH]c3c2)c1 : False
O=C(NCCCn1ccnc1)c1cc(Br)c(Br)s1 : False

====

# assayed target: Nuclear receptor subfamily 0 group B member 1 (Homo sapiens)
# experimental details: DAX1 (NR0B1) inhibitors, primary screen, cell-based, HEK293, Gal4-DAX1, luciferase luminescence (AID 504766)
# run parameters: HEK293 Gal4-DAX1 luciferase reporter, at 6.75 µM, hits give high values
The whole screen tested about 340,000 compounds, of which about 3,400 (1%) were called active. The list comes from a sample in which actives are over-represented; it also holds close analogues and randomly drawn compounds.
measured metric: inhibition

Cc1ccc(CSc2nsc(C)c2C#N)cc1 : 4.45% (active)
Cc1noc(C)c1S(=O)(=O)N(C)C[C@H]1OCCCC[C@@H](C)Oc2ccc(NC(=O)CCCN(C)C)cc2C(=O)N([C@H](C)CO)C[C@@H]1C : 0.48% (inactive)
COc1ccc(NC(=O)CN2C(=O)CSc3ccc(S(=O)(=O)N4CCC(C)CC4)cc32)cc1 : -0.82% (inactive)
COc1cccc(-c2nn(C)c3sc(C(=O)N4CCN(c5ccccc5)CC4)cc23)c1 : -1.01% (inactive)
CN1CCN(C(=O)CCc2nc(-c3ccc(Cl)cc3)no2)CC1 : 5.55% (active)
C=CCOc1ccccc1/C=N/NC(=O)Cc1ccccc1 : 0.28% (inactive)
Cc1cc(C)c(C#N)c(SCc2ccc3c(c2)OCO3)n1 : -0.08% (inactive)
CCN(CC)C(=O)C1=C(C)N(Cc2ccc(C(C)(C)C)cc2)C(=O)C(CC(=O)NCc2cccc3ccccc23)C1 (configuration not stated) : -0.14% (inactive)
O=C(NCCOc1ccccc1)N1[C@H]2CC[C@@H]1C=C(c1ccc(F)cc1OCc1ccccc1)C2 : 0.36% (inactive)
CN(C)/C=C(/C(=O)c1ccccc1Cl)S(C)(=O)=O : -0.35% (inactive)
COc1ccc(-c2noc(CCC(=O)N3CCN(c4cccc(C)c4)CC3)n2)cc1 : 0.39% (inactive)
COc1cccc(OCC(=O)NNC(=O)c2cnccn2)c1 : 5.68% (active)
N#Cc1c(NC(=O)C2CCCO2)sc2c1CCCCC2 (configuration not stated) : 4.7% (active)
CCCC(=O)N1c2ccccc2NC2=C(C(=O)CCC2)C1c1ccc(F)cc1 (configuration not stated) : -0.04% (inactive)
CC1=C(C(=O)N2CCOCC2)CC(CC(=O)NCCN2CCOCC2)C(=O)N1CCC1=CCCCC1 (configuration not stated) : 1.93% (inactive)
N#Cc1c(NC(=O)C2CC(Cl)=CCC2C(=O)O)sc2c1CCCCC2 (configuration not stated) : -0.39% (inactive)
Clc1ccc(-c2cc(COc3ccccc3)no2)cc1Cl : 0.18% (inactive)
CCC(=O)N1c2ccccc2NC2=C(C(=O)CCC2)C1c1ccco1 (configuration not stated) : -0.14% (inactive)
C=CCOc1ccccc1NC(=O)CN1C(=O)CNC1=O : 4.47% (active)
COc1ccccc1CCNC(=O)c1cnccn1 : 0.75% (inactive)
COc1ccc(/C=C2\N=C3CCCN3C2=O)cc1 : 4.84% (active)
COc1ccc(NC(=O)CN2C(=O)CSC2=O)cc1 : 4.34% (active)

====

# assayed target: Nuclear receptor subfamily 0 group B member 1 (Homo sapiens) (UniProt P51843)
# Sequence (P51843 207-470 limits assumed): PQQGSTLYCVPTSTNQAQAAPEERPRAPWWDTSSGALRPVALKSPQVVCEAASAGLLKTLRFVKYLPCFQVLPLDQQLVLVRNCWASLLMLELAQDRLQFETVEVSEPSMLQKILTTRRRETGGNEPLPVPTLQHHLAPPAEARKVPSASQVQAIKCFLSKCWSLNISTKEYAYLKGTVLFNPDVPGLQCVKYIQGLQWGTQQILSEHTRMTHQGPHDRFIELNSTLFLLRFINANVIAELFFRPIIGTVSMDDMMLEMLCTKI
# experimental details: DAX1 (NR0B1) inhibitors, primary screen, cell-based, HEK293, Gal4-DAX1, luciferase luminescence (AID 504766);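 note: 0% = DAX1-transfected cells with DMSO and 100% = empty-vector control cells with DMSO; inhibition shows as a rise in luminescence from relieved DAX1 repression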
# run parameters: HEK293 Gal4-DAX1 luciferase reporter, at 6.75 µM
In all, about 340,000 compounds went through this assay and about 3,400 (1%) were called active.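 Rule for the calls: active = inhibition above the mean over all tested compounds plus 3 SD (cut at about 4.2% in these data); inactive = the rest.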 The sample as a whole holds a higher share of actives than the screen did.
Labels: true (1) for active, false (0) for inactive

CCCN(C(=O)CSc1nnc(N)s1)c1c(N)n(Cc2ccccc2)c(=O)[nH]c1=O : false (0)
CCC(Oc1ccccc1)C(=O)OCC(=O)Nc1c(C)nn(-c2ccccc2)c1C (centres undefined) : false (0)
CN(C)CCNc1ccc(-c2n[nH]c(=O)c3ccccc23)cc1[N+](=O)[O-] : true (1)
Cc1cccc(S(=O)(=O)N(C)C[C@@H]2OCc3cnnn3CCCC(=O)N([C@H](C)CO)C[C@@H]2C)c1 : false (0)
Cc1ccc(C(=O)N[C@H](C(=O)N2CCN(c3ncccn3)CC2)C(C)C)cc1 : false (0)
COc1ccc(N(CC(=O)Nc2cccc3ccccc23)S(C)(=O)=O)c(OC)c1 : false (0)
C[C@H]1CN(c2ccc(Br)cc2)C(=O)[C@@H]1CC(=O)Nc1ccc(Br)cc1 : false (0)
COc1ccc(CCNC(=O)CN(c2ccccc2)S(=O)(=O)c2ccccc2)cc1 : false (0)
CCc1ccccc1NC(=O)CN(c1ccc(OC)cc1OC)S(=O)(=O)c1ccccc1[N+](=O)[O-] : true (1)

====

# assayed target: Nuclear receptor subfamily 0 group B member 1 (Homo sapiens)
# experimental details: DAX1 (NR0B1) inhibitors, primary screen, cell-based, HEK293, Gal4-DAX1, luciferase luminescence (AID 504766);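 note: 0% = DAX1-transfected cells with DMSO and 100% = empty-vector control cells with DMSO; inhibition shows as a rise in luminescence from relieved DAX1 repression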
# run parameters: HEK293 Gal4-DAX1 luciferase reporter, at 6.75 µM
In all, about 340,000 compounds went through this assay and about 3,400 (1%) were called active.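 Rule for the calls: active = inhibition above the mean over all tested compounds plus 3 SD (cut at about 4.2% in these data); inactive = the rest.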 The sample as a whole holds a higher share of actives than the screen did.
Outcomes: T (active), F (inactive)

C[C@H]1CN([C@@H](C)CO)C(=O)CCCn2cc(nn2)CO[C@@H]1CN(C)S(=O)(=O)c1ccc(-n2cccn2)cc1 : F
CCOC(=O)c1cn[nH]c1NC(=S)Nc1ccccc1 : T
OCCC#Cc1ccc(CN2CCN(Cc3ccsc3)C(CCO)C2)cc1 (stereo not given) : F
CCOC(=O)c1ccc(NC(=S)Nc2cc(C)cc(C)n2)cc1 : F
C[C@@H]1CN([C@@H](C)CO)C(=O)c2cc(Br)cnc2O[C@@H]1CN(C)C(=O)C1CCCCC1 : F
OCCC1CN(Cc2cccc(OC3CCCC3)c2)CCN1Cc1ccsc1 (stereo not given) : T
COc1ccc(NC(=O)CSc2nnnn2-c2cccc(OC)c2)cc1 : F
OCCC1CN(Cc2ccccc2-c2ccco2)CCN1Cc1ccsc1 (stereo not given) : F
CCOC(=O)c1cc2c(nc1NC(=S)Nc1ccccc1)CC(C)(CC)OC2 (stereo not given) : F
CCCc1ccc(S(=O)(=O)N2CCN(C(=O)c3cc(C)on3)CC2)cc1 : F

====

# assayed target: Nuclear receptor subfamily 0 group B member 1 (Homo sapiens) (UniProt P51843)
# experimental details: DAX1 (NR0B1) inhibitors, primary screen, cell-based, HEK293, Gal4-DAX1, luciferase luminescence (AID 504766);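 note: 0% = DAX1-transfected cells with DMSO and 100% = empty-vector control cells with DMSO; inhibition shows as a rise in luminescence from relieved DAX1 repression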
# run parameters: HEK293 Gal4-DAX1 luciferase reporter, at 6.75 µM, hits give high values
Screen size: about 340,000 compounds; about 3,400 (1%) were called active. The list comes from a sample in which actives are over-represented; it also holds close analogues and randomly drawn compounds.
measured metric: inhibition

COc1ccc(C(=O)OCC(=O)NCC2CCCO2)cc1[N+](=O)[O-] (centres undefined) : 4.91% (active)
CC(=NNC(N)=O)C1CC2CCC1CC2 (centres undefined) : 0.34% (inactive)
O=C(c1ncn2c1c(=O)[nH]c1ccccc12)N1CCc2ccccc2C1 : -0.1% (inactive)
Cc1ccc(Nc2nc(N)nc(CSc3nnc(C)s3)n2)cc1 : 4.29% (active)
CSC1=NN(c2ccccc2)CN(c2ccccc2)N1C : 0.33% (inactive)
Cc1nnc(SCc2nc3ccccc3nc2C)s1 : 0.55% (inactive)
Cc1cccc(C)c1OCC(=O)NC(Cc1c[nH]c2ccccc12)C(=O)O (centres undefined) : 0.88% (inactive)
CC(C)CC1C(=O)N(Cc2cn(CC3CCCCC3)nn2)CCS(=O)(=O)N1Cc1ccc(-c2ccc(Cl)cc2)cc1 (centres undefined) : 0.42% (inactive)
NC(=S)NN=Cc1ccc(OC(=O)COc2cc(Cl)c(Cl)cc2Cl)cn1 : -2.71% (inactive)
CC1(C)CC(=O)C=C(c2ccc(COC(=O)c3cc(F)cc(F)c3)cc2)C1=O : -0.88% (inactive)
O=C1c2ccccc2C(=O)c2c1cccc2N1CCN(CCO)CC1 : 0% (inactive)
COc1ccc(C(=O)OCC(=O)c2cc(C)n(CC3CCCO3)c2C)cc1[N+](=O)[O-] (centres undefined) : 0.28% (inactive)
COc1ccccc1OCCNC(=O)CCNC(=O)c1ccccc1Cl : 0.98% (inactive)
COc1cccc(NC(=S)NC(=O)c2c(Cl)c(C)nn2C)c1 : 4.28% (active)
Cc1csc(=O)n1CCC(=O)OCC(=O)Nc1ccc(N2CCOCC2)cc1 : 0.99% (inactive)
Cc1noc(C)c1NC(=O)N(C)C[C@@H]1Oc2cc(Br)ccc2S(=O)(=O)N([C@@H](C)CO)C[C@H]1C : 0.32% (inactive)
O=C(COC(=O)c1ccc(S(=O)(=O)Nc2ccccc2)cc1)NCC1CCCO1 (centres undefined) : -0.38% (inactive)
O=C(CN1C(=O)NC2(CCCCCC2)C1=O)NCc1ccc(F)cc1 : -0.55% (inactive)
O=C(CCC(=O)N1CCN(S(=O)(=O)c2ccccc2)CC1)NC1CCCc2ccccc21 (centres undefined) : 0.76% (inactive)
COc1cc(SC)ccc1C(=O)N(Cc1ccccc1)c1ccccc1 : -0.88% (inactive)
CC(=O)NC(Cc1c[nH]c2ccccc12)C(=O)O (centres undefined) : 9.87% (active)
CC(=O)c1ccc(OCC(=O)N(C)C2CCS(=O)(=O)C2)cc1 (centres undefined) : -0.31% (inactive)
O=C1c2ccccc2C(=O)c2c1cccc2N1CCN(Cc2ccccc2)CC1 : 4.26% (active)
CN1CCN(c2nc(Nc3ccc(O)cc3)nc3ccccc23)CC1 : 0.71% (inactive)
Cc1cc(Nc2ccc(Br)cc2)nc2ccccc12 : 5.55% (active)
Cc1nn(C)c(C(=O)NNC(=S)NC2CCCCC2)c1Cl : -0.26% (inactive)
Cc1ccc(S(=O)(=O)NCCSc2ccccc2)cc1[N+](=O)[O-] : -0.31% (inactive)
CC(=O)Nc1ccc(SCC(=O)NC(=O)c2ccc(Cl)cc2)cc1 : 0.53% (inactive)
COc1cccc(OC)c1C(=O)N1CCN(Cc2ccccc2F)CC1 : 2.65% (inactive)
COc1cccc(OC)c1C(=O)NC(=S)Nc1ccc(N2CCOCC2)c(Cl)c1 : 0.83% (inactive)
COCCCn1c(C(=O)NC2CCCCC2)cc2c(=O)n3cccc(C)c3nc21 : -1.22% (inactive)
O=C(CN1C(=O)NC2(CCCC2)C1=O)NCC1CCCO1 (centres undefined) : 10.2% (active)
Cc1ccc(S(=O)(=O)Nc2nc3ccccc3s2)cc1[N+](=O)[O-] : 5.09% (active)
C=CCn1nc(C(=O)OCC)cc1-c1sc(NC(=O)c2ccccc2)nc1C : -1.54% (inactive)
CC(=O)NC(Cc1c[nH]c2ccccc12)C(=O)NCCc1ccccc1 (centres undefined) : 3.45% (inactive)
CCCOC(=O)c1ccc(N2C(=O)c3ccccc3C2=O)cc1 : -0.27% (inactive)
O=C(NCC(=O)N(c1ccccc1)C(C(=O)NCC1CCCO1)c1ccccc1)c1cccs1 (centres undefined) : -0.74% (inactive)
COc1ccc(-c2ccc(CN3C(CC(C)C)C(=O)N(Cc4cn(CC5CCCCC5)nn4)CCS3(=O)=O)cc2)cc1 (centres undefined) : 1.23% (inactive)
COC(=O)C1=C(C)N(C)C(C)=C(C(=O)OC)C1c1cccc(Br)c1 : -0.19% (inactive)
Cc1ccccc1Nc1nc(N)nc(CSc2ccccc2)n1 : 3.71% (inactive)
O=C(NN=Cc1ccc2c(c1)CCC2)c1ccccc1O : 2.24% (inactive)
O=C(CN1CCN(Cc2ccccc2)CC1)NC(c1ccccc1)c1ccccc1 : -1.74% (inactive)
COc1cc2nnn(-c3ccncc3)c2cc1OC : 1.02% (inactive)
CC(=O)Nc1ccc2c3c(ccc([N+](=O)[O-])c13)CC2 : -0.19% (inactive)
